// values below are reported pIC50
- Test system: human PBMC T cells
- procedure-text: cells
- Format: cell-based
- stated-conditions: Homo sapiens, 72 h, read-out: T-cells (IC50)
pIC50: −log10 of the molar value.

compound	pIC50
CCC(CC#N)OC(=O)N[C@H](C)c1cccc(NC(=O)Nc2ccc(-c3cnco3)c(OC)c2)c1 (stereo partly drawn) [Compound 171]	6.00 to 7.00
CCC(CN1CC[S+]([O-])CC1)OC(=O)NCc1cccc(NC(=O)Nc2ccc(-c3cnco3)c(OC)c2)c1 (stereo not drawn) [Compound 84]	6.00 to 7.00
CCN(CCC(OC(=O)NCc1cccc(NC(=O)Nc2ccc(-c3cnco3)c(OC)c2)c1)c1ccccc1)CC(C)C (stereo not drawn) [Compound 125]	6.00 to 7.00
COc1cc(NC(=O)Nc2cccc(CNC(=O)OC(CCN(CC(C)C)CC(C)C)c3ccccc3)c2)ccc1-c1cnco1 (stereo not drawn) [Compound 126]	< 6.00
CCCN(CC)CCC(OC(=O)NCc1cccc(NC(=O)Nc2ccc(-c3cnco3)c(OC)c2)c1)c1ccccc1 (stereo not drawn) [Compound 119]	6.00 to 7.00
CCN(CC(OC(=O)NCc1cccc(NC(=O)Nc2ccc(-c3cnco3)c(OC)c2)c1)C1CCCCC1)C(C)C (stereo not drawn) [Compound 158]	< 6.00
COc1cc(NC(=O)Nc2cccc(CNC(=O)OCCC#N)c2)ccc1-c1cnco1 [Compound 1]	6.00 to 7.00
COc1cc(NC(=O)Nc2cccc(CNC(=O)OCCN(CCC#N)CCC#N)c2)ccc1-c1cnco1 [Compound 14]	< 6.00
COc1cc(NC(=O)Nc2cccc(CNC(=O)OC(CCN3CCCCC3)c3ccccc3)c2)ccc1-c1cnco1 (stereo not drawn) [Compound 50]	< 6.00
COc1cc(NC(=O)Nc2cccc(CNC(=O)OC(CCl)CC#N)c2)ccc1-c1cnco1 (stereo not drawn) [Compound 25]	6.00 to 7.00
CC[C@H](CO)OC(=O)N[C@@H](C)c1cccc(NC(=O)Nc2ccc(C#N)c(OC)c2)c1 [Compound 180]	6.00 to 7.00
COc1cc(NC(=O)Nc2cccc([C@@H](C)NC(=O)OCCC#N)c2)ccc1C#N [Compound 173]	< 6.00
CCC(C[N+]1([O-])CCS(=O)(=O)CC1)OC(=O)NCc1cccc(NC(=O)Nc2ccc(-c3cnco3)c(OC)c2)c1 (stereo not drawn) [Compound 91]	< 6.00
COc1cc(NC(=O)Nc2cccc(CNC(=O)OC(COC(C)C)CN(CCC#N)CC(C)C)c2)ccc1-c1cnco1 (stereo not drawn) [Compound 11]	< 6.00
COc1cc(NC(=O)Nc2cccc(CNC(=O)O[C@@H](CC#N)CN(C)C)c2)ccc1-c1cnco1 [Compound 22]	6.00 to 7.00
COc1cc(NC(=O)Nc2cccc(CNC(=O)O[C@@H](C)CN(C)Cc3ccco3)c2)ccc1-c1cnco1 [Compound 30]	< 6.00
CC[C@H](CO)OC(=O)NCc1cccc(NC(=O)Nc2ccc(-c3cnco3)c(OC)c2)c1 [Compound 60]	6.00 to 7.00
COc1cc(NC(=O)Nc2cccc(CNC(=O)OC(CC#N)C(C)C)c2)ccc1-c1cnco1 (stereo not drawn) [Compound 40]	< 6.00
COc1cc(NC(=O)Nc2cccc(CNC(=O)OCCCOC(C)=O)c2)ccc1-c1cnco1 [Compound 58]	6.00 to 7.00
COc1cc(NC(=O)Nc2cccc(CNC(=O)OC(CC#N)CN3CCCCC3)c2)ccc1-c1cnco1 (stereo not drawn) [Compound 21]	6.00 to 7.00
COc1cc(NC(=O)Nc2cccc([C@H](C)NC(=O)OC3CCOC3)c2)ccc1C#N (stereo partly drawn) [Compound 184]	6.00 to 7.00
CC[C@H](CCC#N)OC(=O)N[C@@H](C)c1cccc(NC(=O)Nc2ccc(C#N)c(OC)c2)c1 [Compound 162]	6.00 to 7.00
COc1cc(NC(=O)Nc2cccc(CNC(=O)O[C@@H]3C=C[C@H](OC(C)=O)C3)c2)ccc1-c1cnco1 [Compound 78]	6.00 to 7.00
CCC(CC#N)OC(=O)N[C@H](C)c1cccc(NC(=O)Nc2ccc(C#N)c(OC)c2)c1 (stereo partly drawn) [Compound 172]	< 6.00
CCN(CC)CC(OC(=O)NCc1cccc(NC(=O)Nc2ccc(-c3cnco3)c(OC)c2)c1)C1CCCCC1 (stereo not drawn) [Compound 157]	> 7.00
COc1cc(NC(=O)Nc2cccc(CNC(=O)OC[C@H](CC#N)N(C)C)c2)ccc1-c1cnco1 [Compound 6]	6.00 to 7.00
COc1cc(NC(=O)Nc2cccc(CNC(=O)OC(CC#N)C3CC3)c2)ccc1-c1cnco1 (stereo not drawn) [Compound 104]	> 7.00
COc1cc(NC(=O)Nc2cccc(CNC(=O)O[C@@H]3CCN(S(=O)(=O)N(C)C)C3)c2)ccc1-c1cnco1 [Compound 77]	6.00 to 7.00
COc1cc(NC(=O)Nc2cccc(CNC(=O)OC(CCN(CC(C)C)C(C)C)c3ccccc3)c2)ccc1-c1cnco1 (stereo not drawn) [Compound 130]	6.00 to 7.00
COc1cc(NC(=O)Nc2cccc(CNC(=O)O[C@H](CCl)CC#N)c2)ccc1-c1cnco1 [Compound 23]	> 7.00
